Where do the numbers come from? From PubChem BioAssay AID248.

Exercise: for every item that follows, state its recorded T/C.
Test system: L1210 leukemia ip in BDF1 mice, survival T/C
TEST SUMMARY: NCI In Vivo Anticancer Drug Screen. Data for tumor model L1210 Leukemia (intraperitoneal) in B6D2F1 (BDF1) mice
MEASUREMENT SETUP: endpoint: mean survival time; dose: 100.0 mg/kg/injection; schedule: Q01DX001 (ip); vehicle: saline with Tween-80; higher = longer survival
Inconclusive results and toxic doses are left out.

Data request: Query (compound): `CCCCCCCNC(C)=O` ; field requested: T/C
Data returned: 92 % of control

Data request: Give its T/C value. Item: `CN(C)N=Nc1ccc(C#N)cc1`
Data returned: 106 % of control

Data request: State the recorded T/C for this entry: `CC(=O)C(=O)Nc1ccccc1`
Data returned: 94 % of control

Data request: Fill blank: measured T/C of the compound `F[Si]1(c2cccc(Br)c2)c2ccccc2-c2ccccc21` is ____.
Data returned: 103 % of control

Data request: Need T/C of O=C1COC(C(Cl)(Cl)Cl)CN1 (stereo not given) , thanks.
Data returned: 108 % of control
